Record form. Attribute: protease stability score. Fill in for each entry.
experiment: protease stability score; higher = more stable; yeast display proteolysis, trypsin and chymotrypsin
Give bare numbers.

Record excerpt, results attached:
EEEKEIAEELIRRIRESLRTGDEDLKHKLADPNVRHIFNGRNNHGREEMLRTLEELIKQFGVENIDIELHDWDHVDGRLHIHVRVRYGDYMMHLRIEAEKVNGRWQSETVELR ... 1.23
SEIETILEKVLRELEHRKETGDEESFERYADPNVRMSVDGKDIHGREEVLRSWLETWKLMGVDHSHLHVTDLRIIGNKLEIDGIVRFNVGDKIVHRHSRLIMLKINGRWMIKQVEIH ... 1.22
DEDREAIELLVRLLITAHETGDEKILWDLMDPNVRYHQGNFELHGREEIMELESRLRKHLGINHISFRLHDMQHIGDKLILHGSLMFRIGDKEHHTEVDIIVIKINGKWLIESIFIR ... 1.57
SEETKNLEHWAKRFEHALETGDEEVLTKLFDPNVRLHFNGVNIHGWELYRKYHQRVDHVHFRIRSVHVYDGRVDMHTEVENRQGDKSHRMDTRLFAIKVNGVWLIESFEVH ... 0.486
SEELRILVELVSKFYDAMKTGDEKTLKELADPNMRIIVGDKVLHGMESLKTHLKRIDHIYVHHFDYKKVDVQGDKVHVRGHSNLVLEFENHREEVIIHENWIVTKYNGRWSLESLEIR ... 1.49
THEERLYREAMELEREVWETGDEHLIRDMVDPNVRFEINGVNTHGREEMARFVHEFGVDHIHIDHLQRINGRLEVRGKFQVGDKWVRTRFISTKINGRWFVESVHVR ... 0.626
SEEEKMVEYAIRLIDSLIRTGDERVLMSLLDPHAKMDVNGKDLIGREFLKHWTHQYKNVKLRDIKVKDAEVQGDKIRIHVELEIEFNGRRDSRDETWYIDKFDGRWLVEEIRVK ... 1.15
DKEEEDSDEALKWFFDVLRTGDERLIREMLDPDARIEIDGVPSHGRESVEEFVHRIRNMKVDDFQVKRIDVQGDKVRLDTHFDGTINGVRRQVDLTIIARKINGRWFNESISIK ... 1.91
SEEEHHARYMTQLFLHALETGDWHELRRMADPNMRLRVRVGDKHWHYHGWEHLHELLESFLKRVDHVEFIERSIHVQGEKSRFRGDVREHVGDKEHTHHIILILDIVNGKIHRIIIINE ... 1.37
SEHEHIAEKMSELLREIVETGDFEQLERLADPHVKLNVDGRNFHGMERFRELKERIRREFGVDHIHVEVERVEVIDGVVINHTKLIIEQGDKRRESRTTLIINKVNGQWRLDSVRVE ... 0.488

Attention now shifts to the item below.
Task: Given the entry DEEEKYIKSLAKLISHAISTGDFELFHKLVDPDVRLIVDGVDLHGWELATKWIEEIRVEDHEVRVKEVRFVDGRANSDGEVILDGEYNGREKRVERKTILVSLKVDGRWTVKSLEIK , report its measured protease stability score.
Result: 0.882

---

test: protease stability score; higher = more stable; yeast display proteolysis, trypsin and chymotrypsin;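 note: relative to predicted unfolded state with 0 unfolded-like and 1 meaning tenfold more protease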
ENDPOINT: protease stability score
Give bare numbers.

Hey, can you go through the list below and give me protease stability score for every item?
1. TEEEHFIKHATELWLRLLRTGDEHELSKMIDPHARVLIGDKNIHGRELASKFLSEFAHQIDHVEIRIKEVRTVDGKVDSDTRLDMHVDGQDIHHETRIISLKVDGKWLLQSFHFD
2. DEHEHFMEYAMKRMLHSWLTGDEHDWHELADPNVKLHIGEYNFIGREEYYRHLHRHLHEAGFKHIKIDHIHVEIQGEKLIFRMDTTIHFNGRKLRVEVIVILFKVNGRWSLHTDEVHIE
3. DELHEDAEKAWRYRLEILRTGDPDSILELMDPDVRIEQGDKKFHGRELTEKFMKWLMDHARYEFFHLKDMRTYGNKVETDGYVVGNVDGQEHIVHVHVYSLKVNGRWTIKSIEIK
4. TEDIEHMIKVVEIFLRAVTTGNEDEMKYLMDPRMRLVVGDKIHHGWEEIWKFLEHIREERDKVHTKDTKVYNGRMDINSRVSSTIHFNGVRIEIDHEVHFHIKKINGRWFIEEIRIQ
5. DEDDELMKRFVDLLLEQLQTGDWRYIARMVDPHVRSDVDIDGVHLKYHGREMYVKLFTDLGAKHMELKHIEVQGDKADIHSHVHFDGQEREIIIYSFKVNGRWRTKRLEVRTI
6. DEQEEFSHRIMRLLIDLWHTGDWTLIEQYLDPNVRFEVGDKRHHGRESAVKALLELHRRLGVKHFDVKDKDQQGEKLVVVLEDRAENHHMEHELIVVKIDGRWTNHSIISRIH
7. DEEEHIMKHELEKWWETVDTGDEDEMLRLADPNVRVDFNGREFVGREEFLKHVEFMVKEWRLTDRRIEREHVIDGKMIIHMRVHGTFNGKETDTRIEIILHVVDGKVKSEEYRIK
8. DEEEEFAKELIEEVTKTILTGDFRTFLELFDPNARLEFNGREIHGMEDWLKMMDELRREIWIHHNHNHRIEVQGDKAHTESRLDVSYNGQRYTLHSRLSIDVVDGRLKRLEYRTK

Result:
[0.456, 0.931, 1.37, 1.3, 0.932, 1.01, 2.06, 1.5]

Hey, can you go through the list below and give me protease stability score for every item?
1. DDIEHDVKFFMERWVEAINTGDWKLLKKLVDPDAKFLIGDKELHGRELYVRHVLELRYRTEMIDNKIEVYDGRVHADMQVHSTLHIDGRNVDIHTHTRVVTRKVDGQWRLKSMEIL
2. NEEEEESKFANELWEETVKTGDERLNRSLADPNTRFHINGVDLHGWESMDETARRYKNITVRLHDMRTYNGRVHLDFEMRVGEFTTKVIIIARKFDGRWILKSIIVH
3. DEQERIIRRLTELFTRAEKTGDWKNFLELADPHVRLKYGEFDHIGREEFYTLKEHVDKKLGIEFRDTDIKDLVVVGDKAVSHLTNDGEVNGVRHELSLNVVISKFNGRWELEQVEIK

Result:
1. 0.993
2. 1.2
3. 0.897

---

Record form. Attribute: protease stability score. Fill in for each entry.
test: protease stability score; higher = more stable; yeast display proteolysis, trypsin and chymotrypsin;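 note: relative to predicted unfolded state with 0 unfolded-like and 1 meaning tenfold more protease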
Numbers only.

SEEEEELTKWKKILEEALKTGDWRLIEELFDPHVRFIINGRHIHGMEVRLKEQEELGVNHESQELRDKHIEHQGDKVVINGHLNKIVFVNGKDLHDRYDIIFIYTKINGRWYVKRMIVN ... 0.502

Hey, can you go through the list below and give me protease stability score for every item?
1. DHEKKEIEDLLRELFEALFTGDEHILHRLLDPRTKLVINGRNYHGRETVRRFVLHIRIFFHHIEIESSEIQGEWIHLHIRVDFREEQGDKERRIDTHAVMHMLKVNGRWVIHEIVLH
2. DEDDEFMKRLAEEVIKNLHTGDWESLVHLMDPNALFEFDGVRNHGREQTDRFWEEVHERYPNVREKWDIHTIDVFNGRAKVDSRITFHFDGRDYVHKSEFHLIVFNGKVKSVHIHIR

Result:
1: 1.54; 2: 0.158

---

assay: protease stability score; higher = more stable; yeast display proteolysis, trypsin and chymotrypsin;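 note: relative to predicted unfolded state with 0 unfolded-like and 1 meaning tenfold more protease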
ENDPOINT: protease stability score
Give bare numbers.

TTEHAATLFLTSMITGDWEWISRLFDPHVRLVFNGVTNVGRELAIHKLVETVLKLGVKHTHIDEMRLYGDKVEVHVTLRVGDKTTNIDIEVDWVDGQVKEVHIDTRTEDTSKILKHVYK ... 0.109
SEMDEASKLALKLLEHMVRTGDEHLSEHLVDPHARLFQGDKVEWGRERMTRQLHEWRVRDFKLKRVHVYNGRIEVDGVLNGTVDGVDENRDVRLIITKIDGQWLIKSVIIE ... 0.474

Attention now shifts to the item below.
Task: Given the entry SEEEHYRREMIHFSREVWETGDWDSLMNLADPNVRIEAENHDLHGREFFVKLMEEISRKFKNVRIIIRHLHIQGDKVEMHSEIIFNGRSVHVTFFALKVNGRWIFKEMVFI , report its measured protease stability score.
Result: 0.925

---

assay: protease stability score; higher = more stable; yeast display proteolysis, trypsin and chymotrypsin;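 note: relative to predicted unfolded state with 0 unfolded-like and 1 meaning tenfold more protease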
Label no (0) if protease stability score falls below 1; label yes (1) in every other case.

For orientation, consider the following solved cases.
REDEEMIEHAVRREIHSYYTGDWEKHYKLLDPNALIHIDINGRQENIHGREEIMRFWYERFKDFGFDHMEIKRITLVDGKLHIFSIIDVNGVRIELEIIIVKVDGRWRLHTMRYHYH ... no (0)
DDNTKHAHELVERWRHIIETGDEDIMEEMLDPNVRLLIGDKDLHGRETVEIWLRVLIRRFKNVRLESVHLESVEIQGNKAFSRVRVDLRYNGREDSMDVVVVVYKIDGRWRVHELSVH ... yes (1)
DEEEEMRRRQTTLFLEAWITGDWDLIQRLLDPHTRVDVNGVEIHGMEEFARWFREKKEKVKNLRSHLTDIELQGEKVILYGIDTVNGKTHKVRVKVDIVDGVIKEVRFDLR ... yes (1)
HEDERHLHEIIKRWFEALLTGDEHVLERLLDPNARIDIDGREFIGMEKFAHDISRIKNMQIKHHHIKHVRYVDGVMHWHGQRHGVVNGQEKNVEVIINLFVYDGRFKSMHIKDD ... yes (1)

Field: next sequence
Task: Answer whether protease stability score of SEEDELAREVSRIFTEASRTGDEERLIRLIDPHAKIQIGDKHFIGREDMEEWTRRLVERVDHLEVFIEDSRLIGNKLDVKGLFIEDYGDKRTVLEVRWILVKINGRWSIHSLHFK is greater than or equal to 1.
Result: yes (1)
